B1: glmS ribozyme (parent)
chain: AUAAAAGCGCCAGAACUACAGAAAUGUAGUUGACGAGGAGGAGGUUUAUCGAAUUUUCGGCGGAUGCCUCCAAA

# Variants of: B1
# assay-procedure: self-cleavage kobs at 640 uM GlcN6P; higher = faster cleavage; RNA array
# details: with glucosamine-6-phosphate
This sample holds only a part of the variants without activity.
parameter: self-cleavage kobs at 640 uM GlcN6P (s⁻¹)
Give your result in s⁻¹ as a bare value.

U54G A64C C67A C70U = 0.000556

Exam item: Note down self-cleavage kobs at 640 uM GlcN6P recorded for U54G U56A G66A
Marked response: 0.00162
